# System: RNAi-treated eri-1 (mg366) nematodes
# PROCEDURE_DETAILS: RNAi screening of olfactory receptor genes: chemotaxis assay of RNAi-treated nematodes to odorants
# Assay type: in vivo, Caenorhabditis elegans
# SETTINGS: srh-104 RNAi-treated nematodes; repellent or high concentration of attractant
We label by threshold. Values of chemotaxis index strictly beneath -0.7 are condition met. Values of -0.7 and up are condition not met.

### Prompt Record CC(C)CCO [High Iaa] : is its chemotaxis index strictly below -0.7?
### Response condition not met

### Prompt Record CCCCCCCCO [octanol] : is its chemotaxis index strictly below -0.7?
### Response condition not met

### Prompt Record CC(=O)C(C)=O [High Da] : is its chemotaxis index strictly below -0.7?
### Response condition not met

### Prompt Record O=Cc1ccccc1 [High Bz] : is its chemotaxis index strictly below -0.7?
### Response condition met

###

# Test system: RNAi-treated eri-1 (mg366) nematodes
# PROCEDURE_DETAILS: RNAi screening of olfactory receptor genes: chemotaxis assay of RNAi-treated nematodes to odorants
# Format: in vivo, Caenorhabditis elegans
# SETTINGS: srh-82 RNAi-treated nematodes; low concentration of attractant
Could you please report measured chemotaxis index for the items listed next?

### Prompt Supply measured chemotaxis index of "CCC(C)=O" in your reply.
### Response 0.79

### Prompt Supply measured chemotaxis index of "CCC(=O)C(C)=O" in your reply.
### Response 0.49

### Prompt Supply measured chemotaxis index of "c1cnccn1" in your reply.
### Response 0.31

### Prompt Supply measured chemotaxis index of "Cc1nc(C)c(C)s1" in your reply.
### Response 0.71

###

Could you please report measured chemotaxis index for the items listed next?
# Test system: RNAi-treated eri-1 (mg366) nematodes
# PROCEDURE_DETAILS: RNAi screening of olfactory receptor genes: chemotaxis assay of RNAi-treated nematodes to odorants
# Format: in vivo, Caenorhabditis elegans
# SETTINGS: srh-236 RNAi-treated nematodes; low concentration of attractant
# Method: The RNAi assay was carried out by performing an RNAi method involving the feeding (feeding RNAi method) of eri-1 (mg366) (19), using an Ahringer library (37). Nine adult eri-1 mutants were placed on an NGM plate containing isopropyl 1-D-1-thiogalactopyranoside (0.19 g/L), ampicillin (60 mg/L), and Escherichia coli (E. coli), and were then cultured for 4 days. […] The z score and a control value in each single test from 2SD were calculated in all days (Table 3) or every day. […]
# print the numeric value only

### Prompt Report measured chemotaxis index on RNAi-treated eri-1 (mg366) nematodes; entry: "c1cnccn1"
### Response 0.44

### Prompt Report measured chemotaxis index on RNAi-treated eri-1 (mg366) nematodes; entry: "Cc1nc(C)c(C)s1"
### Response 0.64

### Prompt Report measured chemotaxis index on RNAi-treated eri-1 (mg366) nematodes; entry: "CCC(=O)C(C)=O"
### Response 0.37

### Prompt Report measured chemotaxis index on RNAi-treated eri-1 (mg366) nematodes; entry: "O=Cc1ccccc1"
### Response 0.31

### Prompt Report measured chemotaxis index on RNAi-treated eri-1 (mg366) nematodes; entry: "CCC(C)=O"
### Response 0.71

### Prompt Report measured chemotaxis index on RNAi-treated eri-1 (mg366) nematodes; entry: "CC(C)CCO"
### Response 0.41

###

# Tested on: RNAi-treated eri-1 (mg366) nematodes
# PROCEDURE_DETAILS: RNAi screening of olfactory receptor genes: chemotaxis assay of RNAi-treated nematodes to odorants
# Type: in vivo, Caenorhabditis elegans
# SETTINGS: srh-122 RNAi-treated nematodes; low concentration of attractant
Could you please report measured chemotaxis index for the items listed next?
# print the numeric value only

### Prompt Supply measured chemotaxis index of Cc1nc(C)c(C)s1 [trimethylthiazole] in your reply.
### Response 0.44

### Prompt Supply measured chemotaxis index of c1cnccn1 [pyrazine] in your reply.
### Response 0.47

### Prompt Supply measured chemotaxis index of CCC(=O)C(C)=O [pentanedione] in your reply.
### Response 0.24

### Prompt Supply measured chemotaxis index of CCC(C)=O [butanone] in your reply.
### Response 0.58

###

# System: RNAi-treated eri-1 (mg366) nematodes
# PROCEDURE_DETAILS: RNAi screening of olfactory receptor genes: chemotaxis assay of RNAi-treated nematodes to odorants
# Type: in vivo, Caenorhabditis elegans
# SETTINGS: srh-71 RNAi-treated nematodes; low concentration of attractant
Could you please report measured chemotaxis index for the items listed next?

### Prompt Supply measured chemotaxis index of Cc1nc(C)c(C)s1 [trimethylthiazole] in your reply.
### Response 0.85

### Prompt Supply measured chemotaxis index of CCC(=O)C(C)=O [pentanedione] in your reply.
### Response 0.14

### Prompt Supply measured chemotaxis index of c1cnccn1 [pyrazine] in your reply.
### Response 0.56

### Prompt Supply measured chemotaxis index of CCC(C)=O [butanone] in your reply.
### Response 0.76

###

# Tested on: RNAi-treated eri-1 (mg366) nematodes
# PROCEDURE_DETAILS: RNAi screening of olfactory receptor genes: chemotaxis assay of RNAi-treated nematodes to odorants
# Format: in vivo, Caenorhabditis elegans
# SETTINGS: srh-118 RNAi-treated nematodes; low concentration of attractant
Could you please report measured chemotaxis index for the items listed next?
# print the numeric value only

### Prompt Supply measured chemotaxis index of "Cc1nc(C)c(C)s1" in your reply.
### Response 0.73

### Prompt Supply measured chemotaxis index of "c1cnccn1" in your reply.
### Response 0.36

### Prompt Supply measured chemotaxis index of "CCC(C)=O" in your reply.
### Response 0.60

### Prompt Supply measured chemotaxis index of "CCC(=O)C(C)=O" in your reply.
### Response 0.44

###

# System: RNAi-treated eri-1 (mg366) nematodes
# PROCEDURE_DETAILS: RNAi screening of olfactory receptor genes: chemotaxis assay of RNAi-treated nematodes to odorants
# Format: in vivo, Caenorhabditis elegans
# SETTINGS: srh-8 RNAi-treated nematodes; repellent or high concentration of attractant
We label by threshold. Values of chemotaxis index strictly beneath -0.8 are rule met. Values of -0.8 and up are rule not met.

### Prompt Record "CC(C)CCO" : is its chemotaxis index strictly below -0.8?
### Response rule met

### Prompt Record "O=Cc1ccccc1" : is its chemotaxis index strictly below -0.8?
### Response rule met

### Prompt Record "CC(=O)C(C)=O" : is its chemotaxis index strictly below -0.8?
### Response rule not met

### Prompt Record "CCCCCCCC(C)=O" : is its chemotaxis index strictly below -0.8?
### Response rule met

###

# Test system: RNAi-treated eri-1 (mg366) nematodes
# PROCEDURE_DETAILS: RNAi screening of olfactory receptor genes: chemotaxis assay of RNAi-treated nematodes to odorants
# Type: in vivo, Caenorhabditis elegans
# SETTINGS: srh-46 RNAi-treated nematodes; low concentration of attractant
VALUE_TYPE: chemotaxis index
# print the numeric value only

### Prompt Report measured chemotaxis index on RNAi-treated eri-1 (mg366) nematodes; entry: "CCC(C)=O"
### Response 0.82

### Prompt Report measured chemotaxis index on RNAi-treated eri-1 (mg366) nematodes; entry: "c1cnccn1"
### Response −0.04

### Prompt Report measured chemotaxis index on RNAi-treated eri-1 (mg366) nematodes; entry: "Cc1nc(C)c(C)s1"
### Response 0.83

### Prompt Report measured chemotaxis index on RNAi-treated eri-1 (mg366) nematodes; entry: "CCC(=O)C(C)=O"
### Response 0.03

###

# Tested on: RNAi-treated eri-1 (mg366) nematodes
# PROCEDURE_DETAILS: RNAi screening of olfactory receptor genes: chemotaxis assay of RNAi-treated nematodes to odorants
# Assay type: in vivo, Caenorhabditis elegans
# SETTINGS: srh-308 RNAi-treated nematodes; low concentration of attractant
We label by threshold. Values of chemotaxis index strictly beneath 0.1 are MET. Values of 0.1 and up are NOT MET.

### Prompt Record "CC(C)CCO" : is its chemotaxis index strictly below 0.1?
### Response NOT MET

### Prompt Record "O=Cc1ccccc1" : is its chemotaxis index strictly below 0.1?
### Response NOT MET

### Prompt Record "CCC(=O)C(C)=O" : is its chemotaxis index strictly below 0.1?
### Response NOT MET

### Prompt Record "c1cnccn1" : is its chemotaxis index strictly below 0.1?
### Response NOT MET

### Prompt Record "CCC(C)=O" : is its chemotaxis index strictly below 0.1?
### Response MET

### Prompt Record "Cc1nc(C)c(C)s1" : is its chemotaxis index strictly below 0.1?
### Response NOT MET

###

# Tested on: RNAi-treated eri-1 (mg366) nematodes
# PROCEDURE_DETAILS: RNAi screening of olfactory receptor genes: chemotaxis assay of RNAi-treated nematodes to odorants
# Format: in vivo, Caenorhabditis elegans
# SETTINGS: srh-61 RNAi-treated nematodes; low concentration of attractant
VALUE_TYPE: chemotaxis index
# print the numeric value only

### Prompt Supply measured chemotaxis index of Cc1nc(C)c(C)s1 [trimethylthiazole] in your reply.
### Response 0.70

### Prompt Supply measured chemotaxis index of CCC(C)=O [butanone] in your reply.
### Response 0.74

### Prompt Supply measured chemotaxis index of c1cnccn1 [pyrazine] in your reply.
### Response 0.27

### Prompt Supply measured chemotaxis index of CCC(=O)C(C)=O [pentanedione] in your reply.
### Response 0.40
